All figures here come from ChEMBL document CHEMBL2331521.

# ASSAY_DETAILS: Cytotoxicity against human HEK293 cells assessed as cell survival at 20 uM by SRB assay
# Assay type: cell-based
# CONDITION_NOTES: read-out: Survival
ENDPOINT_NAME: viability at 20 µM (%)
Hi! Could you send only the number? It should be in %, unit omitted.

The measured viability at 20 µM associated with `CC1=C(C)C(=O)O[C@@H]([C@](C)(O)[C@H]2CC[C@@]3(O)[C@@H]4CC=C5CC=CC(=O)[C@]5(C)[C@H]4CC[C@]23C)C1` reads 71.9

The measured viability at 20 µM associated with `CC1=C(CO)C(=O)O[C@@H]([C@](C)(O)[C@]2(O)CC[C@@]3(O)[C@@H]4CC=C5CC=CC(=O)[C@]5(C)[C@H]4CC[C@]23C)C1` reads 88.6

The measured viability at 20 µM associated with `CC1=C(C)C(=O)O[C@@H]([C@](C)(O)C2=CC[C@@]3(O)[C@@H]4CC=C5CC=CC(=O)[C@]5(C)[C@H]4CC[C@]23C)C1` reads 100

The measured viability at 20 µM associated with `CC1=C(CO)C(=O)O[C@@H]([C@](C)(O)[C@H]2CC[C@@]3(O)[C@@H]4CC=C5CC=CC(=O)[C@]5(C)[C@H]4CC[C@]23C)C1` reads 100

The measured viability at 20 µM associated with `CC1=C(CO)C(=O)O[C@@H]([C@](C)(O)[C@H]2CC=C3[C@@H]4CC=C5CC=CC(=O)[C@]5(C)[C@H]4CC[C@@]32C)C1` reads 48.3

The measured viability at 20 µM associated with `CC1=C(C)C(=O)O[C@@H]([C@](C)(O)[C@@]2(O)CC[C@]3(O)[C@@H]4CC=C5C=CCC(=O)[C@]5(C)[C@H]4CC[C@]23C)C1` reads 89.4
